# condition.description: in toluene, 293.15 K

{"entry.smiles": "Nc1cccc2c(N)cccc12", "solubility (mole fraction)": 0.000689}
{"entry.smiles": "Nc1cccc2cccc(N)c12", "solubility (mole fraction)": 0.0966}

* * *

# condition.description: in ethyl acetate, 273.15 K

{"entry.smiles": "Nc1cccc2c(N)cccc12", "solubility (mole fraction)": 0.00404}
{"entry.smiles": "Nc1cccc2cccc(N)c12", "solubility (mole fraction)": 0.0765}

* * *

# condition.description: in methanol, 288.15 K

{"entry.smiles": "Nc1cccc2c(N)cccc12", "solubility (mole fraction)": 0.00181}
{"entry.smiles": "Nc1cccc2cccc(N)c12", "solubility (mole fraction)": 0.0327}
